Hey, just so you know, these numbers are from patent US20250152585A1.

Target: N-terminally FLAG-tagged PARP2 (amino acids 1-583) (Homo sapiens)
Construct: N-terminally FLAG-tagged PARP2 (amino acids 1-583)
Sequence (Q9UGN5 whole entry, the tested form may be a part): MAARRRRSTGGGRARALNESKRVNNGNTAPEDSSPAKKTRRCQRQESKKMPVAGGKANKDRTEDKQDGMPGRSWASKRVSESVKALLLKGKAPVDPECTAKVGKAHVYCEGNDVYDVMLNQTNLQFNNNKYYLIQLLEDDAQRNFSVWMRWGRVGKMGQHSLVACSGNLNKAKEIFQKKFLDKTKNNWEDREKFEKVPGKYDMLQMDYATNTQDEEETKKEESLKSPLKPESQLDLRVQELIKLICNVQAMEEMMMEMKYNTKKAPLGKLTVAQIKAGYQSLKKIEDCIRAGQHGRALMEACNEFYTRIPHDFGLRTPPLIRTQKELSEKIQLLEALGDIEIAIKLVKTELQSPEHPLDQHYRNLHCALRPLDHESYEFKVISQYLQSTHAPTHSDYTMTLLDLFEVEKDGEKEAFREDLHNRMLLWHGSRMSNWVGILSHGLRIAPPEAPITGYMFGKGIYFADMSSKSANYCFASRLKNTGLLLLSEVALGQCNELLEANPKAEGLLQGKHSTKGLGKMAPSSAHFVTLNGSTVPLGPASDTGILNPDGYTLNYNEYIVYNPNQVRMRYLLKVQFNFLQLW
Assay: PARP2 probe displacement HTRF assay
Format: binding
Conditions: binned Kd, probe displacement HTRF
READOUT_NAME: Kd

COMPOUND: CNC(=O)c1ccc(N2CCC(N3CC4(c5nc6ncc(F)cc6c(=O)[nH]5)CC3C4)CC2)c(F)n1
EXPERIMENTAL_TARGET: N-terminally FLAG-tagged PARP2 (amino acids 1-583) (Homo sapiens)
RESULT: 1000 to 10000 nM
--
COMPOUND: CS(=O)(=O)NC(=O)c1ccc(N2CCC(N3CCC(c4cc5ccccc5c(=O)[nH]4)C3)CC2)cc1 (single isomer, unassigned) [Compound 342b]
EXPERIMENTAL_TARGET: N-terminally FLAG-tagged PARP2 (amino acids 1-583) (Homo sapiens)
RESULT: 10 to 100 nM
--
COMPOUND: CCc1ccc(C2CCN(C3CCN(c4cnc(C(=O)NC)nc4Cl)CC3)C2)[nH]c1=O (racemic)
EXPERIMENTAL_TARGET: N-terminally FLAG-tagged PARP2 (amino acids 1-583) (Homo sapiens)
RESULT: 100 to 1000 nM
--
COMPOUND: CCc1cnc(C23CC(C2)N(C2CCN(c4ccc(C(=O)NC)nc4C(F)(F)F)CC2)C3)[nH]c1=O
EXPERIMENTAL_TARGET: N-terminally FLAG-tagged PARP2 (amino acids 1-583) (Homo sapiens)
RESULT: > 10000 nM
--
COMPOUND: CNC(=O)c1ccc(N2CCC(N3CCC(c4ccc(CC(F)(F)F)c(=O)[nH]4)C3)CC2)cn1 (racemic)
EXPERIMENTAL_TARGET: N-terminally FLAG-tagged PARP2 (amino acids 1-583) (Homo sapiens)
RESULT: > 10000 nM
--
COMPOUND: CNC(=O)c1ccc(N2CCC(N3CCC(c4nc5ccc(F)c(F)c5c(=O)[nH]4)C3)CC2)cn1 (single isomer, unassigned) [Compound 222a]
EXPERIMENTAL_TARGET: N-terminally FLAG-tagged PARP2 (amino acids 1-583) (Homo sapiens)
RESULT: 100 to 1000 nM
--
COMPOUND: Cc1n[nH]c(-c2ccc(N3CCC(N4CCC(c5nc6ccccc6c(=O)[nH]5)C4)CC3)cn2)n1 (racemic)
EXPERIMENTAL_TARGET: N-terminally FLAG-tagged PARP2 (amino acids 1-583) (Homo sapiens)
RESULT: 100 to 1000 nM

----------
Target: full length N-terminally FLAG-tagged PARP1 (Homo sapiens, UniProt P09874)
Sequence (P09874 whole entry): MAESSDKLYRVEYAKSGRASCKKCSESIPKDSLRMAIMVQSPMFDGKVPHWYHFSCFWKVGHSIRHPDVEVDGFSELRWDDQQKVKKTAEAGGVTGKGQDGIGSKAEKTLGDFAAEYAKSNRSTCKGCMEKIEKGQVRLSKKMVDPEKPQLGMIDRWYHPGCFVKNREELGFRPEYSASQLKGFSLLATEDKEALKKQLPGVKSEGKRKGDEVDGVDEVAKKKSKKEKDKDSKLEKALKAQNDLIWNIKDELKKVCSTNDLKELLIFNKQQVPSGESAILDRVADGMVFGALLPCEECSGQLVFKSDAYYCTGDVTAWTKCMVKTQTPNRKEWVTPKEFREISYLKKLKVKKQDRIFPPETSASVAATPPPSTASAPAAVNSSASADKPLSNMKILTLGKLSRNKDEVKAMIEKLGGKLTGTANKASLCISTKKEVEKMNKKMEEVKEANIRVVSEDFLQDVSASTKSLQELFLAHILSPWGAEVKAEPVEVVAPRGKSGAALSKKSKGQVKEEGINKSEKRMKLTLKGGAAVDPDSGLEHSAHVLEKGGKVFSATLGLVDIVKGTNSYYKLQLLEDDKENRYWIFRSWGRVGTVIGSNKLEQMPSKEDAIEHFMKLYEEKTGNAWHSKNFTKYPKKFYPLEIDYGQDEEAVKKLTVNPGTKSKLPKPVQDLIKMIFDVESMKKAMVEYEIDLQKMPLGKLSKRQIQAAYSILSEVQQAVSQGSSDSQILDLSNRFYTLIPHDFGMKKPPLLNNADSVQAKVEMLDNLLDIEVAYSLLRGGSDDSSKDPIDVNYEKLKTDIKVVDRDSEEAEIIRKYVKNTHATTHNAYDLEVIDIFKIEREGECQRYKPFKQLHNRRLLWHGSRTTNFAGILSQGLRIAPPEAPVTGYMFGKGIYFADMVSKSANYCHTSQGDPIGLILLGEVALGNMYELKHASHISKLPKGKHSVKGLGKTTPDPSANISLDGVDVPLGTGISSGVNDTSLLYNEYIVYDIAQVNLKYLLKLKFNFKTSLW
Assay: PARP1 probe displacement HTRF assay
Settings: read-out: PARP1 HTRF; binned Kd, probe displacement HTRF
pKd: −log10 of the molar value.

COMPOUND: CNC(=O)c1cc(C)c(N2CCC(N3CCC(c4nc5ccccc5c(=O)[nH]4)C3)CC2)c(C)n1 (single isomer, unassigned) [Compound 224b]
pKd: 6.00 to 7.00
--
COMPOUND: CNC(=O)c1ccc(N2CCC(N3CCC(c4nc5ccc(F)c(F)c5c(=O)[nH]4)C3)CC2)cn1 (single isomer, unassigned) [Compound 222b]
pKd: > 8.00
--
COMPOUND: CNC(=O)c1ccc(N2CCC(N3CCC(c4cc5cc(O)ccc5c(=O)[nH]4)C3)CC2)cn1 (single isomer, unassigned) [Compound 357b]
pKd: > 8.00
--
COMPOUND: O=C(NCC(F)F)c1ccc(N2CCC(N3CCC(c4cc5ccc(F)cc5c(=O)[nH]4)C3)CC2)c(F)n1 (single isomer, unassigned) [Compound 399b]
pKd: > 8.00
--
COMPOUND: CCc1ccc(C2CCN(C3CCN(c4ccc(C(=O)NCCF)nc4F)CC3)C2)[nH]c1=O (single isomer, unassigned) [Compound 322b]
pKd: > 8.00
--
COMPOUND: CNC(=O)c1ncc(N2CCC(N3CCC(c4cc5ccc(F)cc5c(=O)[nH]4)C3)CC2)c(C(F)(F)F)n1 (single isomer, unassigned) [Compound 266a]
pKd: > 8.00
